Form field: % inhibition beta 1 (h) (one value per entry).
molecular target: beta 1 (h) (Homo sapiens, UniProt P08588); construct: CEREP; experiment: biochemical; format: binding; details: 10 µM
Sequence (P08588 whole entry): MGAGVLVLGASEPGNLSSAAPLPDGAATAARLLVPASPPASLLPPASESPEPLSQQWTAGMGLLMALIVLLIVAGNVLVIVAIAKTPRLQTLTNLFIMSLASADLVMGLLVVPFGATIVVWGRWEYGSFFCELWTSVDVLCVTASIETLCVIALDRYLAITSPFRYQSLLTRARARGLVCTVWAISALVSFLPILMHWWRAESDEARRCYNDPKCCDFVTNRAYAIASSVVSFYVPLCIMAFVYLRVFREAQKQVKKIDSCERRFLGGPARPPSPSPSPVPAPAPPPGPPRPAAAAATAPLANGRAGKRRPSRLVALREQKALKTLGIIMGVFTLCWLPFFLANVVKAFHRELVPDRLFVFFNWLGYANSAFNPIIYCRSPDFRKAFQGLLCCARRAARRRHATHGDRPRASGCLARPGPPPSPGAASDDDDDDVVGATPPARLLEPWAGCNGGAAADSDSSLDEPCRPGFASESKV
recorded.endpoint: % inhibition beta 1 (h) (%)

| compound | recorded.endpoint | result.number |
| --- | --- | --- |
| Cc1c(C(=O)c2cccc3ccccc23)c2cccc3c2n1[C@H](CN1CCOCC1)CO3 [WIN55212-2] | % inhibition beta 1 (h) | 6 |
| Cc1ccc2c(c1)Cc1c(C(=O)NN3CCCCC3)nn(-c3ccc(Cl)cc3Cl)c1-2 [Gp-1a] | % inhibition beta 1 (h) | 30 |
| CCCC(C)(C)c1ccc2c(c1)OC(C)(C)[C@@H]1CC=C(C)C[C@@H]21 [JWH133] | % inhibition beta 1 (h) | -7 |
| Cc1c(C(=O)NN2CCCCC2)nn(-c2ccc(Cl)cc2Cl)c1-c1ccc(I)cc1 [AM251] | % inhibition beta 1 (h) | 25 |
| CCCn1c(C)c(C(=O)c2cccc3ccccc23)c2ccccc21 [JWH015] | % inhibition beta 1 (h) | 7 |
| COc1ccc(C(=O)c2c(C)n(CCN3CCOCC3)c3cc(I)ccc23)cc1 [AM630] | % inhibition beta 1 (h) | 9 |
| CN1CCCC[C@H]1Cn1cc(C(=O)c2cc([N+](=O)[O-])ccc2I)c2ccccc21 [(S)-AM1241] | % inhibition beta 1 (h) | 14 |
| CCCCCCC(C)(C)c1cc(OC)c(C2=C[C@H]3CC[C@]2(CO)C3(C)C)c(OC)c1 [HU910] | % inhibition beta 1 (h) | -4 |

###

target: hCB2R (Homo sapiens); assay: cell-based; assay type: cell-based; parameters: expressed in transfected cells; host or cells: Flp-In-293 (Invitrogen #R750-07), pcDNA5/FRT
Sequence (P34972 whole entry): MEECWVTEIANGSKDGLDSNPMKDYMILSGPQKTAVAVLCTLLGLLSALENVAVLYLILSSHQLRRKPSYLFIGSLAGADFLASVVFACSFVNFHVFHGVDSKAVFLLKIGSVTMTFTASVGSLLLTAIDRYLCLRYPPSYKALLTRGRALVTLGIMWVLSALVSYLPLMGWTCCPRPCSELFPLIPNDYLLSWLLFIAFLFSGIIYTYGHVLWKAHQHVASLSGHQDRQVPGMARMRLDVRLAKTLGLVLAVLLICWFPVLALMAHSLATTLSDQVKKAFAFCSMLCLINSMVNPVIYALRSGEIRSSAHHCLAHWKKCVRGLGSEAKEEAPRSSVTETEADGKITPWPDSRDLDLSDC

| compound | target | Emax ± SEM pERK hCB2R |
| --- | --- | --- |
| CN1CCCC[C@H]1Cn1cc(C(=O)c2cc([N+](=O)[O-])ccc2I)c2ccccc21 [(S)-AM1241] | hCB2R (Homo sapiens) | 60 ± 11 |
| CCCC(C)(C)c1ccc2c(c1)OC(C)(C)[C@@H]1CC=C(C)C[C@@H]21 | hCB2R (Homo sapiens) | 96 ± 13 |
| CN1CCCCC1Cn1cc(C(=O)c2cc([N+](=O)[O-])ccc2I)c2ccccc21 (racemic) [(rac)-AM1241] | hCB2R (Homo sapiens) | 32 ± 12 |
| Cc1c(C(=O)NN2CCCCC2)nn(-c2ccc(Cl)cc2Cl)c1-c1ccc(I)cc1 | hCB2R (Homo sapiens) | -90 ± 3 |
| CN1CCCC[C@@H]1Cn1cc(C(=O)c2cc([N+](=O)[O-])ccc2I)c2ccccc21 [(R)-AM1241] | hCB2R (Homo sapiens) | 75 ± 9 |
| COc1ccc(C(=O)c2c(C)n(CCN3CCOCC3)c3cc(I)ccc23)cc1 | hCB2R (Homo sapiens) | -92 ± 4 |

###

Form field: Emax cAMP mCB2R (one value per entry).
biological target: mCB2R (Mus musculus, UniProt P47936); experiment: biochemical; assay type: biochemical; parameters: from tissue; host or cells: spleen of male C57BL/6J mice; conditions: normalized to 10 µM CP55940
Sequence (P47936 whole entry): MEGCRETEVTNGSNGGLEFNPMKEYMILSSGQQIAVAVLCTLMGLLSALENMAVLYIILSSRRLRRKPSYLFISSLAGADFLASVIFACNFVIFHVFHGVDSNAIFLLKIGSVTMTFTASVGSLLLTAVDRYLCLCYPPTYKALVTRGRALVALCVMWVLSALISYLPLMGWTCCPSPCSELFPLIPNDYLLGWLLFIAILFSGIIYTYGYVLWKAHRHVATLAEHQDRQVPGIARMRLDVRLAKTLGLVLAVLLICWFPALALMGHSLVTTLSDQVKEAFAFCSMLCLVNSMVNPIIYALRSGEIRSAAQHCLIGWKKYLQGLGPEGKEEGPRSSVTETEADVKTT

| molecular.string | unit.tag | Emax cAMP mCB2R |
| --- | --- | --- |
| Cc1ccc2c(c1)Cc1c(C(=O)NN3CCCCC3)nn(-c3ccc(Cl)cc3Cl)c1-2 | % | -25 |
| Cc1c(C(=O)c2cccc3ccccc23)c2cccc3c2n1[C@H](CN1CCOCC1)CO3 | % | 97 |
| CCCCCCC(C)(C)c1cc(OC)c(C2=C[C@H]3CC[C@]2(CO)C3(C)C)c(OC)c1 | % | 67 |
| CCCn1c(C)c(C(=O)c2cccc3ccccc23)c2ccccc21 | % | 93 |

###

target: UniProt:P34972; parameters: expressed in transfected cells; host or cells: Flp-In-293 (Invitrogen #R750-07), pcDNA5/FRT; conditions: hCB2R
recorded.endpoint: β-AR-pERK ΔΔlogR

| molecule | result.number |
| --- | --- |
| CCCCC/C=C\C/C=C\C/C=C\C/C=C\CCCC(=O)OC(CO)CO | 0.07 |
| CCCCCCC(C)(C)c1cc(OC)c([C@@H]2C=C(CO)[C@@H]3C[C@H]2C3(C)C)c(OC)c1 | 0.71 |
| CN1CCCCC1Cn1cc(C(=O)c2cc([N+](=O)[O-])ccc2I)c2ccccc21 (racemic) [(rac)-AM1241] | -0.19 |
| CCCCC/C=C\C/C=C\C/C=C\C/C=C\CCCC(=O)NCCO [Anandamide, N-arachidonoylethanolamine] | 0.04 |
| CN1CCCC[C@@H]1Cn1cc(C(=O)c2cc([N+](=O)[O-])ccc2I)c2ccccc21 [(R)-AM1241] | -0.38 |
| CCCCCCC(C)(C)c1cc(OC)c(C2=C[C@H]3CC[C@]2(CO)C3(C)C)c(OC)c1 | 1.31 |
| CN1CCCC[C@H]1Cn1cc(C(=O)c2cc([N+](=O)[O-])ccc2I)c2ccccc21 [(S)-AM1241] | -1.05 |

###

Form field: pEC50 ± SEM GIRK hCB1R (one value per entry).
molecular target: hCB1R (Homo sapiens); construct: host or cells: CHO; experiment: cell-based; type: cell-based
Sequence (P21554 whole entry): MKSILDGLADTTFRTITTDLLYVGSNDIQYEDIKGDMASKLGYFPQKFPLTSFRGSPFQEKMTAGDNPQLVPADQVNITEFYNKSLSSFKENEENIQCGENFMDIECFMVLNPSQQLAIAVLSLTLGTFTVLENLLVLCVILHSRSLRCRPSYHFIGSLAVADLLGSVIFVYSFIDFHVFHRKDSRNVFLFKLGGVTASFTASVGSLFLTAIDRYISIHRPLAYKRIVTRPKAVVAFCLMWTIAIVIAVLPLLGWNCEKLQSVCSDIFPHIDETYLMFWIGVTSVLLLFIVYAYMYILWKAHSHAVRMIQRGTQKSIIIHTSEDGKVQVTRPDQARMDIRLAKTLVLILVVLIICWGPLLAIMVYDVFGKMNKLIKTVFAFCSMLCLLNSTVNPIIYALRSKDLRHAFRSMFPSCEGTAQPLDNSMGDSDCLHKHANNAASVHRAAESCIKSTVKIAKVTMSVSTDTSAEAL

| molecule | pEC50 ± SEM GIRK hCB1R |
| --- | --- |
| CN1CCCC[C@@H]1Cn1cc(C(=O)c2cc([N+](=O)[O-])ccc2I)c2ccccc21 [(R)-AM1241] | 5.00 ± 0.1 |
| CCCCCCC(C)(C)c1cc(OC)c(C2=C[C@H]3CC[C@]2(CO)C3(C)C)c(OC)c1 | < 5 |
| CN1CCCCC1Cn1cc(C(=O)c2cc([N+](=O)[O-])ccc2I)c2ccccc21 (racemic) [(rac)-AM1241] | < 5 |
| CN1CCCC[C@H]1Cn1cc(C(=O)c2cc([N+](=O)[O-])ccc2I)c2ccccc21 [(S)-AM1241] | < 5 |
| CCCC(C)(C)c1ccc2c(c1)OC(C)(C)[C@@H]1CC=C(C)C[C@@H]21 | < 5 |
| Cc1ccc2c(c1)Cc1c(C(=O)NN3CCCCC3)nn(-c3ccc(Cl)cc3Cl)c1-2 | 5.26 ± 0.1 |

###

target: Human recombinant TRPV1 (Homo sapiens, UniProt Q8NER1); construct: expressed in transfected cells; host or cells: HEK293 (TRPV1-HEK-293, gift from John Davis, GlaxoSmithKline); experiment: cell-based; type: cell-based
Sequence (Q8NER1 whole entry): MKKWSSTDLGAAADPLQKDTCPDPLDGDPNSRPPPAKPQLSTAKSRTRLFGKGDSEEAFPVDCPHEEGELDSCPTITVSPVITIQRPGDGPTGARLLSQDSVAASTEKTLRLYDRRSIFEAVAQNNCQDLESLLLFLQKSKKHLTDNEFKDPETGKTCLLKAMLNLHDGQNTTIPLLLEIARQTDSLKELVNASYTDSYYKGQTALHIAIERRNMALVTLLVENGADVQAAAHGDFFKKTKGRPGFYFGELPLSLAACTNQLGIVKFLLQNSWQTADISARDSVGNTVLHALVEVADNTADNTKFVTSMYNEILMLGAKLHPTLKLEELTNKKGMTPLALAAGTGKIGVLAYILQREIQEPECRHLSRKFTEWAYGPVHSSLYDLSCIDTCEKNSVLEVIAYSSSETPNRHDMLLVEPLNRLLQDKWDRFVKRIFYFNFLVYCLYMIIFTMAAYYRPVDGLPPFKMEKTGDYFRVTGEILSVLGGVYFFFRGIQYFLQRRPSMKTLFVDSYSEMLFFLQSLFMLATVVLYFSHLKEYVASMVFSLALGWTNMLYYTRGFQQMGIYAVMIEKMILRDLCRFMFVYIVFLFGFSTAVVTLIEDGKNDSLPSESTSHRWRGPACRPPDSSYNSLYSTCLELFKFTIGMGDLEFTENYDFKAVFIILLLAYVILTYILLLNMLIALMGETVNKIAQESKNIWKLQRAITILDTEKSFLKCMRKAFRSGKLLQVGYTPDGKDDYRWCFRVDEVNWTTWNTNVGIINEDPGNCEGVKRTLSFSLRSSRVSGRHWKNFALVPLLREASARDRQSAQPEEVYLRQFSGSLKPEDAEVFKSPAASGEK

| compound | value.relation.sign | TRPV1 Efficacy (% ionomycin 4μM) (%) |
| --- | --- | --- |
| CCCCCCC(C)(C)c1cc(OC)c([C@@H]2C=C(CO)[C@@H]3C[C@H]2C3(C)C)c(OC)c1 [HU308] | < | 10 |
| CCCCCCC(C)(C)c1cc(OC)c(C2=C[C@H]3CC[C@]2(CO)C3(C)C)c(OC)c1 [HU910] | < | 10 |
| Cc1c(C(=O)c2cccc3ccccc23)c2cccc3c2n1[C@H](CN1CCOCC1)CO3 [WIN55212-2] | = | 44.4 |
| COc1ccc(C(=O)c2c(C)n(CCN3CCOCC3)c3cc(I)ccc23)cc1 [AM630] | < | 10 |
| Cc1ccc2c(c1)Cc1c(C(=O)NN3CCCCC3)nn(-c3ccc(Cl)cc3Cl)c1-2 [Gp-1a] | < | 10 |
| CCCC(C)(C)c1ccc2c(c1)OC(C)(C)[C@@H]1CC=C(C)C[C@@H]21 [JWH133] | = | 24.6 |
| Cc1c(C(=O)NN2CCCCC2)nn(-c2ccc(Cl)cc2Cl)c1-c1ccc(Cl)cc1 [SR141716A] | = | 17.5 |
| CN1CCCC[C@@H]1Cn1cc(C(=O)c2cc([N+](=O)[O-])ccc2I)c2ccccc21 [(R)-AM1241] | = | 10.7 |
| CN1CCCC[C@H]1Cn1cc(C(=O)c2cc([N+](=O)[O-])ccc2I)c2ccccc21 [(S)-AM1241] | = | 12.0 |

###

Form field: pIC50 (one value per entry).
target: Rat recombinant TRPV2 (Rattus norvegicus); test: cell-based; settings: vs LPC 3μM; read-out: TRPV2 IC50 for antagonism or desensitization
Sequence (Q9WUD2 whole entry): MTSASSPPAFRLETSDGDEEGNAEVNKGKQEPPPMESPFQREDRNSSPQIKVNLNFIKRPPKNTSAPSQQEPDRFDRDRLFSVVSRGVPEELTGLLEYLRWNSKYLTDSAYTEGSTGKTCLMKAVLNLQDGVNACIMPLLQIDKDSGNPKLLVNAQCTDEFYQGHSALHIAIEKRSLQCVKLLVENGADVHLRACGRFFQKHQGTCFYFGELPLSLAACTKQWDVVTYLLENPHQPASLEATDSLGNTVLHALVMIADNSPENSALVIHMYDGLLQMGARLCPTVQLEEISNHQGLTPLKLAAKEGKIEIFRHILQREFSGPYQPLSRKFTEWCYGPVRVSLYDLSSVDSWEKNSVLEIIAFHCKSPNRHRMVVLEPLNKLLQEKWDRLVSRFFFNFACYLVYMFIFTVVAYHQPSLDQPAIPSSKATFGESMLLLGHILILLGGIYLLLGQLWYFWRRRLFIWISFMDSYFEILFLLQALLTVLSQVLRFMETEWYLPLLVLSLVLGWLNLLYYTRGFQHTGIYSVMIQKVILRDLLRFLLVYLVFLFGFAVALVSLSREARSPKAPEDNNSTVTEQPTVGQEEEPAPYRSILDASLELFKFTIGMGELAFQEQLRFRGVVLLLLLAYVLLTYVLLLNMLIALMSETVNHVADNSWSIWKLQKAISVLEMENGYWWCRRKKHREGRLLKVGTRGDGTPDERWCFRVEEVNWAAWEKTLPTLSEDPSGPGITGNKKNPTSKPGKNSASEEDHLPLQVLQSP
pIC50: −log10 of the molar value.

| compound | value.relation.sign | pIC50 |
| --- | --- | --- |
| Cc1ccc2c(c1)Cc1c(C(=O)NN3CCCCC3)nn(-c3ccc(Cl)cc3Cl)c1-2 [Gp-1a] | = | 4.92 |
| CCCCCCC(C)(C)c1cc(OC)c(C2=C[C@H]3CC[C@]2(CO)C3(C)C)c(OC)c1 [HU910] | < | 4.00 |
| CN1CCCC[C@H]1Cn1cc(C(=O)c2cc([N+](=O)[O-])ccc2I)c2ccccc21 [(S)-AM1241] | = | 4.69 |
| CCCC(C)(C)c1ccc2c(c1)OC(C)(C)[C@@H]1CC=C(C)C[C@@H]21 [JWH133] | < | 4.00 |
| COc1ccc(C(=O)c2c(C)n(CCN3CCOCC3)c3cc(I)ccc23)cc1 [AM630] | = | 4.45 |
